// provenance: patent US7576222B2

# target under test: catalytic domain of the recombinant TACE protein (Homo sapiens, UniProt P78536)
# Construct: The catalytic domain of the recombinant TACE protein was expressed and purified; made in house
# Sequence (P78536 223-474 limits assumed): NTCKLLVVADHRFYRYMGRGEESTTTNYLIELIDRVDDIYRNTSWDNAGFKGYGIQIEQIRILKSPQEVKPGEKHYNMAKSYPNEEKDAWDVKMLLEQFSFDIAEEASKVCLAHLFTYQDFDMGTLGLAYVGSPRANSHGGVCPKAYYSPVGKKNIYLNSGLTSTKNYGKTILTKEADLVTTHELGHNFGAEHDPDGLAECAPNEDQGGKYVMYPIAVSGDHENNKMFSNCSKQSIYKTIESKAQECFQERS
# protocol notes: TACE FRET assay using TACE cat
# Type: biochemical
# protocol conditions: read-out: TACE Inhibition (%)
Please enter label 1 where inhibition at 1 µM is greater than or equal to 10%, and label 0 where it is lower.

substance smiles	label value
CC#CCOc1ccc(S(=O)(=O)N[C@@H](Cc2c(C)n(Cc3ccccc3F)c3ccccc23)C(=O)O)cc1	label 1
CC#CCOc1ccc(S(=O)(=O)N[C@@H](Cc2cn(Cc3cccnc3)c3ccc(C(=O)O)cc23)C(=O)O)cc1	label 0
CC#CCOc1ccc(S(=O)(=O)N[C@@H](Cc2cn(CC(C)C)c3ccc(C(=O)O)cc23)C(=O)O)cc1	label 0
CC#CCOc1ccc(S(=O)(=O)N[C@@H](Cc2cn(CC(C)C)c3ccc(Cl)cc23)C(=O)O)cc1	label 1
CC#CCOc1ccc(S(=O)(=O)N[C@@H](Cc2c(C)n(Cc3cccc(F)c3)c3ccccc23)C(=O)O)cc1	label 1
CC#CCOc1ccc(S(=O)(=O)N[C@H](Cc2cn(Cc3ccc(OCC)cc3)c3ccccc23)C(=O)O)cc1	label 1
